- system: human NaV1.7 (with β1 subunit) stably expressed in HEK-293 cells (Homo sapiens (Human))
- measurement description: Patch voltage clamp electrophysiology assay (EP), inactivated-state block
- test parameters: membrane potential held at -60 mV; read-out: affinity for the inactivated state of NaV1.7
quantity: IC50 (nM)
The answer is to be given in nM; state only the numeric part.

I'd like to know its IC50. The compound in question is CS(=O)(=O)Nc1nnc2cc(COc3ccc(Cl)c(Cl)c3)c(Br)cn12 [Example 55]
2.6

###

- system: hNav1.7 (Homo sapiens (Human))
- Sequence (Q15858 other isoform, or with tags, fused parts or gaps): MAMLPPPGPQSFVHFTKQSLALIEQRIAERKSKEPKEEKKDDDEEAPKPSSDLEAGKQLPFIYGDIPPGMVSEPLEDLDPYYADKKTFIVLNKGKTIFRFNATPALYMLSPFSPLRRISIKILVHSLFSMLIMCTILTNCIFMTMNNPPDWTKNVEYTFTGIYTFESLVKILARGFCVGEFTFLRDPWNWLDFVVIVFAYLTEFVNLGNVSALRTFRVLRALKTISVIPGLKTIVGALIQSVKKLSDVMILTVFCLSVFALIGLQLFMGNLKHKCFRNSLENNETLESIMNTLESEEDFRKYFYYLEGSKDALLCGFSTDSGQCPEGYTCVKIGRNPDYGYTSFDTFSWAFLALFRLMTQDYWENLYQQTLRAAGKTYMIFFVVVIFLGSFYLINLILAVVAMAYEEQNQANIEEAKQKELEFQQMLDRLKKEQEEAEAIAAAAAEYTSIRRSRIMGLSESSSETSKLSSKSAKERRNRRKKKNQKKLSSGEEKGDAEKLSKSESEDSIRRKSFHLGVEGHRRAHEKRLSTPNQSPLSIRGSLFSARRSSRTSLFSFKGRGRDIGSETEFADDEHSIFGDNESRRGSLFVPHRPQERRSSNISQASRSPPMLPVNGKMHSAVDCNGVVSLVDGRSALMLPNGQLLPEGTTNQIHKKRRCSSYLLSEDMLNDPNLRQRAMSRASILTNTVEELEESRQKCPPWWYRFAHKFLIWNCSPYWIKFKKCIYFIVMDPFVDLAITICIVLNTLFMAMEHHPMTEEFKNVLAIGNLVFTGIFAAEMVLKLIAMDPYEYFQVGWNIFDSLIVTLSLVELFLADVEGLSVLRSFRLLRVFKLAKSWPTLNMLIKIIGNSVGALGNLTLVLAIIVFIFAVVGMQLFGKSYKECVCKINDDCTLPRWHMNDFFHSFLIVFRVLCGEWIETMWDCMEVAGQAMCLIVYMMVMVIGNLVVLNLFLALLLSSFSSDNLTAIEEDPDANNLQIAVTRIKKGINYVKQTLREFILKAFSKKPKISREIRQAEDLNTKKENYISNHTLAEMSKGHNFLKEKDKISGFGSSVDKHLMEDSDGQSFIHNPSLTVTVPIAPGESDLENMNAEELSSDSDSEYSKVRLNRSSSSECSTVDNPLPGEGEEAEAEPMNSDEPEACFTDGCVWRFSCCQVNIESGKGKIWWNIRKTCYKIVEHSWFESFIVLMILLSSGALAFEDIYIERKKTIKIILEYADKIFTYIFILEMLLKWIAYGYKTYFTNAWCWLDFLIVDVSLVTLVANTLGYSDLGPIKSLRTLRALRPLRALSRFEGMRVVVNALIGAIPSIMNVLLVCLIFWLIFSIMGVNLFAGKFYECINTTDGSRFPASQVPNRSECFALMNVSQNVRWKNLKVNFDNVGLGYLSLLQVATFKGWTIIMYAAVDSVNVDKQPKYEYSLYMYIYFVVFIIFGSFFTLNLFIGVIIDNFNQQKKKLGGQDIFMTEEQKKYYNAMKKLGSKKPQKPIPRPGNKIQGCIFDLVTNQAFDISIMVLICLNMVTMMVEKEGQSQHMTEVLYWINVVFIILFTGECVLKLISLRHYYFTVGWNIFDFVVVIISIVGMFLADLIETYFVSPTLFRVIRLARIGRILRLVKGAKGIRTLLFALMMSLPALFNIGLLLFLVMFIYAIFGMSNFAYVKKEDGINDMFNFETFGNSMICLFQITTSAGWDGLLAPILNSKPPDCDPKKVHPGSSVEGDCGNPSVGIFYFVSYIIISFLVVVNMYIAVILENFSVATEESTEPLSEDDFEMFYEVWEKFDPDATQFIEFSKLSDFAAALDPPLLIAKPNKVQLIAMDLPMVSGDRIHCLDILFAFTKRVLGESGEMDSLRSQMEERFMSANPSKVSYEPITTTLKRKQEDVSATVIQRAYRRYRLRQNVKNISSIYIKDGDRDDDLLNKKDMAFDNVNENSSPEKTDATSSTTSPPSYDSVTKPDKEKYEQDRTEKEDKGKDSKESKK
- Sequence (Q07699 19-218 partner): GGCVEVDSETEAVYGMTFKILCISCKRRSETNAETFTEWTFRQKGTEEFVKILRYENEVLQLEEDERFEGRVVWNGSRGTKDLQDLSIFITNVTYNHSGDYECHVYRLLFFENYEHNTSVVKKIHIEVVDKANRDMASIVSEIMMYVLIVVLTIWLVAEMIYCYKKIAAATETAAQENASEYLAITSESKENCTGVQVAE
- measurement description: Tritiated sulfonamide competitive binding to membranes from cells expressing hNav1.7 and the β1 subunit;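 note: displacement of the tritiated ligand from recombinant cell membranes, read by liquid scintillation counting of filter-bound radioactivity, nonspecific binding defined with 1 µM unlabelled compound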
- test parameters: 100 pM [3H]compound, 18 h, room temperature; inactivated state of NaV1.7 membrane binding; read-out: NaV1.7 Ligand Binding Assay (IC50)
quantity: log10(IC50) (log10 of the value in nM)
A difference of one corresponds to tenfold IC50; all values are log10 with IC50 in nM.

Recorded log10(IC50), per entry:
>  <compound>
O=S(=O)(Nc1nnc2cc(O[C@@H]3CCCN(Cc4ccc(F)cc4Cl)C3)c(C3CC3)cn12)C1CC1

>  <system>
hNav1.7 (Homo sapiens (Human))

>  <log10(IC50)>
1.53

$$$$
>  <compound>
O=S(=O)(Nc1nnc2cc(OC3C4CC5CC(C4)CC3C5)c(C3CC3)cn12)C1CC1 (stereo not drawn) [Example 24]

>  <system>
hNav1.7 (Homo sapiens (Human))

>  <log10(IC50)>
1.82

$$$$
>  <compound>
CC1(C)[C@H]2CC[C@H](COc3cc4nnc(NS(C)(=O)=O)n4cc3C3CC3)[C@@H]1C2 [Example 83]

>  <system>
hNav1.7 (Homo sapiens (Human))

>  <log10(IC50)>
0.48

$$$$
>  <compound>
O=S(=O)(Nc1nnc2cc(OCCC34CC5CC(CC(C5)C3)C4)c(C3CC3)cn12)C1CC1 [Example 22]

>  <system>
hNav1.7 (Homo sapiens (Human))

>  <log10(IC50)>
0.87

$$$$
>  <compound>
CC1(C)[C@H]2CC[C@H](COc3cc4nnc(NS(=O)(=O)N5CCC5)n4cc3C3CC3)[C@@H]1C2 [Example 85]

>  <system>
hNav1.7 (Homo sapiens (Human))

>  <log10(IC50)>
0.85

$$$$
>  <compound>
CS(=O)(=O)Nc1nnc2cc(OCC3CCCCC3)c(Br)cn12 [Example 6]

>  <system>
hNav1.7 (Homo sapiens (Human))

>  <log10(IC50)>
1.96

$$$$

Recall the recorded log10(IC50) for CCS(=O)(=O)Nc1nnc2cc(OCC34CC5CC(CC(C5)C3)C4)c(C3CC3)cn12 [Example 72] with hNav1.7 (Homo sapiens (Human)) and state it.
0.60

Now the compound C=Cc1cn2c(NS(C)(=O)=O)nnc2cc1OCC1(C)CCCCC1 [Example 62]
1.81

Now the compound CC1(S(=O)(=O)Nc2nnc3cc(COc4cc(Cl)cc(OC(F)(F)F)c4)c(C4CC4)cn23)CC1 [Example 104]
0.60
